Data origin: ChEMBL document CHEMBL3792308

test: Inhibition of HCV C-terminal his-tagged NS5B delta21 RNA dependent RNA polymerase assessed as inhibition of full-length 20mer RNA product formation after 120 mins by PAGE method in presence of 32P-radiolabeled GpG primer; parameters: species or system Hepacivirus hominis
recorded endpoint: Ki

Please look up its Ki: C[C@@]1(O)[C@H](O)[C@@H](COP(=O)(O)OP(=O)(O)OP(=O)(O)O)O[C@H]1n1cnc2c(N)nc(F)nc21
32 µM

====

experiment: Cytotoxicity against African green monkey Vero cells after 3 days by hemocytometry; assay type: cell-based; conditions: chlorocebus sabaeus
Listing: CC50 at 72 h of selected compounds

Some compounds with known CC50 at 72 h results, for comparison:
1) COc1nc(N)nc2c1ncn2[C@@H]1O[C@H](COP(=O)(N[C@@H](C)C(=O)OCC(C)(C)C)Oc2cccc3ccccc23)[C@@H](O)[C@@]1(C)O (some centres not stated) [BMS-986094]; 14 µM
2) CCOC(=O)[C@H](C)NP(=O)(OC[C@H]1O[C@@H](n2cnc3c(OC)nc(O)nc32)[C@](C)(O)[C@@H]1O)Oc1ccccc1 (some centres not stated); > 100 µM
3) CCOC(=O)[C@H](C)NP(=O)(OC[C@H]1O[C@@H](n2cnc3c(N)nc(Cl)nc32)[C@](C)(O)[C@@H]1O)Oc1ccccc1 (some centres not stated); > 100 µM

Please look up its CC50 at 72 h: CCOC(=O)[C@H](C)NP(=O)(OC[C@H]1O[C@@H](n2cnc3c(N)nc(ONC(=O)OCc4ccccc4)nc32)[C@](C)(O)[C@@H]1O)Oc1ccccc1 (some centres not stated)
> 100 µM

Please look up its CC50 at 72 h: CONc1nc(N)nc2c1ncn2[C@@H]1O[C@H](CO)[C@@H](O)[C@@]1(C)O
> 100 µM

Please look up its CC50 at 72 h: CCOP(=O)(OCC)c1nc(N)nc2c1ncn2[C@@H]1O[C@H](CO)[C@@H](O)[C@@]1(C)O
> 100 µM

Please look up its CC50 at 72 h: COc1nc(N)c2ncn([C@@H]3O[C@H](CO)[C@@H](O)[C@@]3(C)O)c2n1
> 100 µM
